- Tested on: U2OS
- run-description: normalized growth rate inhibition value (GR) relative to untreated cells (GR value (dimensionless, 1 = untreated growth)); higher = less growth inhibition
- experimental-parameters: 0.0316 µM; 72 h
measurement-name: normalized growth rate inhibition value

[
  {
    "smiles": "COc1cc2c(Oc3ccc(NC(=O)C4(C(=O)Nc5ccc(F)cc5)CC4)cc3F)ccnc2cc1OCCCN1CCOCC1",
    "measurement-name": "normalized growth rate inhibition value",
    "measured-value": 0.791
  },
  {
    "smiles": "C=CCNc1ncnc2ccc(Br)cc12",
    "measurement-name": "normalized growth rate inhibition value",
    "measured-value": 1.09
  },
  {
    "smiles": "Cc1[nH]c2ccccc2c1CCNCc1ccc(/C=C/C(=O)NO)cc1",
    "measurement-name": "normalized growth rate inhibition value",
    "measured-value": 1.05
  },
  {
    "smiles": "Cc1ccc(Nc2nccc(N(C)c3ccc4c(C)n(C)nc4c3)n2)cc1S(N)(=O)=O",
    "measurement-name": "normalized growth rate inhibition value",
    "measured-value": 1.04
  },
  {
    "smiles": "COC(=O)c1ccc2c(c1)NC(=O)/C2=C(\\Nc1ccc(N(C)C(=O)CN2CCN(C)CC2)cc1)c1ccccc1",
    "measurement-name": "normalized growth rate inhibition value",
    "measured-value": 1.04
  }
]
